Reference source: paper PMC5797146

# measurement target: T1, Clostridium difficile toxin A (Clostridioides difficile …, UniProt P16154)
# T1 construct: also called TcdA
# experimental protocol: SPR
# stated conditions: both partners purified

{"binder": "A26.8 VHH T56R, T103M (VHH, source: E. coli TG1, periplasmic extract, purified (IMAC, SEC)) VHH: QVKLEESGGGLVQAGGSLRLSCAASERTFSRYPVAWFRQAPGAEREFVAVISSTGRSTYYADSVKGRFTISRDNAKVTVYLQMNNLKREDTAVYFCAVNSQRMRLQDPNEYDYWGQGTQVTVSS", "kon": "6.4e+06 M⁻¹ s⁻¹"}
{"binder": "A26.8 VHH T103R (VHH, source: E. coli TG1, periplasmic extract, purified (IMAC, SEC)) VHH: QVKLEESGGGLVQAGGSLRLSCAASERTFSRYPVAWFRQAPGAEREFVAVISSTGTSTYYADSVKGRFTISRDNAKVTVYLQMNNLKREDTAVYFCAVNSQRRRLQDPNEYDYWGQGTQVTVSS", "kon": "2.7e+06 M⁻¹ s⁻¹"}
{"binder": "A26.8 VHH T58K (VHH, source: E. coli TG1, periplasmic extract, purified (IMAC, SEC)) VHH: QVKLEESGGGLVQAGGSLRLSCAASERTFSRYPVAWFRQAPGAEREFVAVISSTGTSKYYADSVKGRFTISRDNAKVTVYLQMNNLKREDTAVYFCAVNSQRTRLQDPNEYDYWGQGTQVTVSS", "kon": "2.5e+06 M⁻¹ s⁻¹"}
{"binder": "A26.8 VHH D107N (VHH, source: E. coli TG1, periplasmic extract, purified (IMAC, SEC)) VHH: QVKLEESGGGLVQAGGSLRLSCAASERTFSRYPVAWFRQAPGAEREFVAVISSTGTSTYYADSVKGRFTISRDNAKVTVYLQMNNLKREDTAVYFCAVNSQRTRLQNPNEYDYWGQGTQVTVSS", "kon": "1.9e+06 M⁻¹ s⁻¹"}
{"binder": "A26.8 VHH D107R (VHH, source: E. coli TG1, periplasmic extract, purified (IMAC, SEC)) VHH: QVKLEESGGGLVQAGGSLRLSCAASERTFSRYPVAWFRQAPGAEREFVAVISSTGTSTYYADSVKGRFTISRDNAKVTVYLQMNNLKREDTAVYFCAVNSQRTRLQRPNEYDYWGQGTQVTVSS", "kon": "1.4e+06 M⁻¹ s⁻¹"}
{"binder": "A26.8 VHH T56R, T103K (VHH, source: E. coli TG1, periplasmic extract, purified (IMAC, SEC)) VHH: QVKLEESGGGLVQAGGSLRLSCAASERTFSRYPVAWFRQAPGAEREFVAVISSTGRSTYYADSVKGRFTISRDNAKVTVYLQMNNLKREDTAVYFCAVNSQRKRLQDPNEYDYWGQGTQVTVSS", "kon": "8.6e+06 M⁻¹ s⁻¹"}
{"binder": "A26.8 VHH Q101K, T103K (VHH, source: E. coli TG1, periplasmic extract, purified (IMAC, SEC)) VHH: QVKLEESGGGLVQAGGSLRLSCAASERTFSRYPVAWFRQAPGAEREFVAVISSTGTSTYYADSVKGRFTISRDNAKVTVYLQMNNLKREDTAVYFCAVNSKRKRLQDPNEYDYWGQGTQVTVSS", "kon": "5e+06 M⁻¹ s⁻¹"}
{"binder": "A26.8 VHH T56R, T103R (VHH, also called lead double mutant; source: E. coli TG1, periplasmic extract, purified (IMAC, SEC)) VHH: QVKLEESGGGLVQAGGSLRLSCAASERTFSRYPVAWFRQAPGAEREFVAVISSTGRSTYYADSVKGRFTISRDNAKVTVYLQMNNLKREDTAVYFCAVNSQRRRLQDPNEYDYWGQGTQVTVSS", "kon": "8.3e+06 M⁻¹ s⁻¹"}
